Measured target: T1, human ASGR-1 (wild type) (human, UniProt P07306 1-291)
T1 construct: also called wt ASGR1; huASGR-1
T1 sequence: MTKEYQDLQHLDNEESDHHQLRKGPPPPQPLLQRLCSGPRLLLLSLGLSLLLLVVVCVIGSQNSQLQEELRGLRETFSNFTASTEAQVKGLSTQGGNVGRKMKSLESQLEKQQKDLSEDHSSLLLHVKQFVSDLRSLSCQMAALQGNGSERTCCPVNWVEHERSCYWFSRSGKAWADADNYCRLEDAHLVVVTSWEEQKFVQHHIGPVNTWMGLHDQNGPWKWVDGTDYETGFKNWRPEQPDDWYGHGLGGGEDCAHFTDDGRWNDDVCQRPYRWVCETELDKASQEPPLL
Experimental protocol: FACS ratio: 65C12 geomean / this mAb geomean
Reported property: Expression Normalization to mAb 65C12
Number only, please.

Query: Suppose we examine the binder 53F7 (antibody, V domains shown, mAb) VH: QVQLVQSGAEVKKPGASVKVSCKASGYTFTGYHMHWVRQAPGQGLEWMGWINPNNNGTNYAQKFQGRVTMTRDTSISTAYMELNRLTSDDTAVYYCARDGTSSFDYWGQGTLVTVSS VL: DIQMSQSPSSVSASVGDRVTITCRASQGISRWLAWYQQKPGKAPNLLIYAASSLQSGVPSRFSGSGSGTDFTLTISSLQPEDFAIYYCQQANSFPFTFGPGTKVDIK ; what Expression Normalization to mAb 65C12 value has been reported?
Reply: 1.29

Query: I'd like to know its Expression Normalization to mAb 65C12. The binder in question is 61A1 (antibody, V domains shown, mAb) VH: QVQLQESGPGLVKPSETLSLTCTVSGGSISSHFWSWIRQPAGKGLEWIGRIYIRGSTNYNPSLKSRVTMSVDTSKNQFSLKLSSVTAADTAVYYCAREGKTGGVSYFDYWGQGTLVTVSS VL: DIQMTQSPSSLSASVGDRVTITCRASQSISSYLNWYQQKPGKAPKLLIYAASSLQSGVPSRFSGSGSGTDFTLTISSLQPEDFAPYYCQQSYNISFTFGPGTKVDIK
Reply: 1.4

Query: // returns reported Expression Normalization to mAb 65C12 for input 32D6 (antibody, V domains shown, mAb) VH: QVQLVESGGGVVQPGRSLRLSCAASGFTFSSYGMHWVRQAPGKGLEWVTVIWHDGSNAYYADSVKGRFTISRDNSKNTLYLQMNSLRAEDTAVYYCARENSSSYYFDYWGQGTLVTVSS VL: DIQMTQSPSSLSTSVGDRVTITCRASQNIISYLNWYQQKPGKAPKLLMYVASRLQSGVPSRFSGSGSGTDFTLTISSLQAEDFATYYCQQSYSTPYTFGGGTKVAIK
Reply: 1.55

Query: Suppose we examine the binder 202A3 (antibody, V domains shown, mAb) VH: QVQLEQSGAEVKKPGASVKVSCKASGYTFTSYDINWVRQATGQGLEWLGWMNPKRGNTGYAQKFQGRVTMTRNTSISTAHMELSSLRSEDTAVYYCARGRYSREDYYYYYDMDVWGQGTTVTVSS VL: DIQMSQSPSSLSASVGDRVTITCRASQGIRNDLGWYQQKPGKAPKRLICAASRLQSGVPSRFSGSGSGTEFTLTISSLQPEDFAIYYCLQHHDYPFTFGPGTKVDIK ; what Expression Normalization to mAb 65C12 value has been reported?
Reply: 2.26

Query: Tell me the measured Expression Normalization to mAb 65C12 of 56E5 (antibody, V domains shown, mAb) VH: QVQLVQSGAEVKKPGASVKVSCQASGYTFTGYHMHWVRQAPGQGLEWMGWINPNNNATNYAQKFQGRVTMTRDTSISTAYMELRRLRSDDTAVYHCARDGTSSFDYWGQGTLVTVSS VL: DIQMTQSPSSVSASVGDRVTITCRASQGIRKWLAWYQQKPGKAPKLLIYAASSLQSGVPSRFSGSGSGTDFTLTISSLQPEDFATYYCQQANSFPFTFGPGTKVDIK , please.
Reply: 1.32

Query: Sample 218G4 (antibody, V domains shown, mAb) VH: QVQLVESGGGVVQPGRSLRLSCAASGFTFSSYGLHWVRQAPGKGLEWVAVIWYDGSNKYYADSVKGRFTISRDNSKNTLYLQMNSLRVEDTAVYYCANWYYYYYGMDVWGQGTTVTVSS VL: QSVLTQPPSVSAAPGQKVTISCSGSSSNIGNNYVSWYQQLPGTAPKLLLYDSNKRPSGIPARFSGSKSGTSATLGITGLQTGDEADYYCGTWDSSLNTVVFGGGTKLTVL — what was its Expression Normalization to mAb 65C12?
Reply: 4.59

Query: Please give the measured Expression Normalization to mAb 65C12 for this binder: 7E11 (antibody, V domains shown, mAb) VH: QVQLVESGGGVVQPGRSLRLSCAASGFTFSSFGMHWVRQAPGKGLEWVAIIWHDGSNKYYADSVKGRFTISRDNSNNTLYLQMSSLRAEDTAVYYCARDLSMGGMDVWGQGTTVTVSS VL: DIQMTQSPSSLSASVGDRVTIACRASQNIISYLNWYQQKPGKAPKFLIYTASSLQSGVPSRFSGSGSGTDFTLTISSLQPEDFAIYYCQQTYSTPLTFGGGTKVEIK
Reply: 1.23

Query: Expression Normalization to mAb 65C12 for 65C12 (antibody, V domains shown, mAb) VH: EVQLVESGGGLVKPGGSLRLSCAASGFTFRSFSLNWVRQAPGKGLEWVSSISSSSSYIYYADSVKGRFTISRDNAKNSLYLQMNSLRAEDTAVYYCARDAYSHYWGQGTLVTVSS VL: EIVMTQSPATLSVFPGEGATLSCRASQSVSINLAWYQQKPGQAPRLLIYGASTRATGIPARFNASGSGTEFTLSISSLQSENFAVYYCQQYNTWPLTFGGGTKVEIK ?
Reply: 1

Query: Please report the recorded Expression Normalization to mAb 65C12 for 198D2 (antibody, V domains shown, mAb) VH: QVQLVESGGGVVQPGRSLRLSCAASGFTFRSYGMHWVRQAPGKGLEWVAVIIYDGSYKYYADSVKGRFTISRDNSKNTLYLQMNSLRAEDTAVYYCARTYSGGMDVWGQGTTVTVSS VL: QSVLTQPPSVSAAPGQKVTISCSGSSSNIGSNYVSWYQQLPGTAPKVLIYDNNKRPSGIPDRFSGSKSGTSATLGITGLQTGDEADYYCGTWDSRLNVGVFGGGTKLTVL .
Reply: 3.32

Query: Requested read-out: Expression Normalization to mAb 65C12. Entry: 197G3 (antibody, V domains shown, mAb) VH: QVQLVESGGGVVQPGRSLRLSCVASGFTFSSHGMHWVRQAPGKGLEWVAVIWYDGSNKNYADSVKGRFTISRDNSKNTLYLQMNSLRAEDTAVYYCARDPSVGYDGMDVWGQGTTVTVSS VL: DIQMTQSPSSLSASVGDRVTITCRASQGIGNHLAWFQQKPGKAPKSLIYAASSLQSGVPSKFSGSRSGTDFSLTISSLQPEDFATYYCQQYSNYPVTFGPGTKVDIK
Reply: 4.21
